- procedure details: 14C-WOBE437 saturation binding to mouse brain membranes
- condition description: mouse brain membranes; read-out: Kd
readout name: pKd
Answers are plain numbers, as −log10 of the molar value.

Param item = CCCCCCC/C=C/C=C/C(=O)NCCc1ccc(OC)c(OC)c1 [^14C-WOBE437] ; retrieve measured pKd.
7.80

* * *

- target entity: CB1 receptor (Homo sapiens, UniProt P21554)
- Sequence (P21554 whole entry): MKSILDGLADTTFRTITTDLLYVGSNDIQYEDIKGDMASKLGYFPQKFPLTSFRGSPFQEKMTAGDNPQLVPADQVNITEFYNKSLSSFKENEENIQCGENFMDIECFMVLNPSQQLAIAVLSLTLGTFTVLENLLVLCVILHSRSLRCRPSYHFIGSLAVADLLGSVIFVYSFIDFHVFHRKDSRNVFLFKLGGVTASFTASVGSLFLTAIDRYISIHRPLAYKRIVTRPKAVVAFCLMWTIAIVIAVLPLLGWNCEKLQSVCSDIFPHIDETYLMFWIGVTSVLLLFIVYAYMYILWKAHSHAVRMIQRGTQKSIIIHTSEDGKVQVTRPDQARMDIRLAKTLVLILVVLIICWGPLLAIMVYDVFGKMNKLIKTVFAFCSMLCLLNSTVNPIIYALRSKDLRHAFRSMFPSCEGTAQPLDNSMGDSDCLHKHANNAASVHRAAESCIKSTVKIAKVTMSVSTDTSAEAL
readout name: pKi
Give bare numbers, as −log10 of the molar value.

Param item = CCCCCCC/C=C/C=C/C(=O)NCCc1ccc(OC)c(OC)c1 [WOBE437] ; retrieve measured pKi.
4.77

* * *

- System: AEA uptake in U937 cells
- procedure details: AEA uptake inhibition in U937 cells
- Type: cell-based
- condition description: Homo sapiens, U-937; U937 cells; 100 nM total AEA
- Method: Based on the natural product (2E,4E)-N-isobutylamidedodeca-2,4-dienamide from the medicinal plant E. purpurea as a starting point, a library of 634 of analogs and derivatives with varying alkyl chain length was synthesized, and structure of the head group moiety analyzed. […] All radioactivity-based AEA and 2-AG uptake and release assays performed in U937, and HMC-1 cells were carried out using two different assay formats as previously reported. […]
readout name: pIC50
Give bare numbers, as −log10 of the molar value.

API: value(readout= pIC50, system= AEA uptake in U937 cells, query= CCCCCCC/C=C/C=C/C(=O)NCCc1ccc(OC)c(OC)c1 [WOBE437] )
8.00

src = patent US10414721B1
